System: SpTbr T-box DNA-binding domain (GST fusion);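 further: protein at 200 nM in PBS on universal double-stranded arrays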
Sequence: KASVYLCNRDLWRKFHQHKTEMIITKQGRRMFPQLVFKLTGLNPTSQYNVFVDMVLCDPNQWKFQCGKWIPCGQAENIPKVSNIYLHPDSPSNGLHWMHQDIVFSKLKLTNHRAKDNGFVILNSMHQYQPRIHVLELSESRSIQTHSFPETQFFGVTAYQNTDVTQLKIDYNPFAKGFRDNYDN
Test: PBM E-score of 8-mer (E-score (dimensionless, -0.5 to 0.5)); Tbr is Tbrain of the sea star Patiria miniata (Pm) or the sea urchin Strongylocentrotus purpuratus (Sp); higher = stronger binding preference
Conditions: the construct has about 5 more residues each side
In all, about 33,000 sequences were measured (“E-score (dimensionless, -0.5 to 0.5)”: median about -0.046, highest 2% from about 0.36 on). The full list was thinned out, with the highest values kept by preference.
# Lookup of reported PBM E-score of 8-mer keyed by entry
Output: the number by itself.

Consider the worked cases shown below.
{"residueString": "CCGCCACA", "PBM E-score of 8-mer": 0.157}
{"residueString": "GTGGAAAA", "PBM E-score of 8-mer": 0.125}
{"residueString": "TGGTGACA", "PBM E-score of 8-mer": 0.39}
{"residueString": "TCGTGACA", "PBM E-score of 8-mer": 0.325}
{"residueString": "TACGTGAA", "PBM E-score of 8-mer": 0.0338}
{"residueString": "TAGGGCGA", "PBM E-score of 8-mer": -0.00769}
{"residueString": "GGCGTGAA", "PBM E-score of 8-mer": 0.473}
{"residueString": "CGGCCCAG", "PBM E-score of 8-mer": -0.28}

**Q:** # value lookup — system SpTbr T-box DNA-binding domain (GST fusion), readout PBM E-score of 8-mer, item CTCTGGGC;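 further: protein at 200 nM in PBS on universal double-stranded arrays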
**A:** -0.112

**Q:** # value lookup — system SpTbr T-box DNA-binding domain (GST fusion), readout PBM E-score of 8-mer, item ATCGGCTG;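 further: protein at 200 nM in PBS on universal double-stranded arrays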
**A:** 0.0647

**Q:** # value lookup — system SpTbr T-box DNA-binding domain (GST fusion), readout PBM E-score of 8-mer, item CGCTAAAC;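 further: protein at 200 nM in PBS on universal double-stranded arrays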
**A:** 0.187

**Q:** # value lookup — system SpTbr T-box DNA-binding domain (GST fusion), readout PBM E-score of 8-mer, item CGGCGACA;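 further: protein at 200 nM in PBS on universal double-stranded arrays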
**A:** 0.296

**Q:** # value lookup — system SpTbr T-box DNA-binding domain (GST fusion), readout PBM E-score of 8-mer, item GGGTGACA;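 further: protein at 200 nM in PBS on universal double-stranded arrays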
**A:** 0.426

**Q:** # value lookup — system SpTbr T-box DNA-binding domain (GST fusion), readout PBM E-score of 8-mer, item ACGGACAT;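 further: protein at 200 nM in PBS on universal double-stranded arrays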
**A:** -0.0905

**Q:** # value lookup — system SpTbr T-box DNA-binding domain (GST fusion), readout PBM E-score of 8-mer, item AGCGTCAA;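 further: protein at 200 nM in PBS on universal double-stranded arrays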
**A:** 0.317

**Q:** # value lookup — system SpTbr T-box DNA-binding domain (GST fusion), readout PBM E-score of 8-mer, item AATGGACC;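 further: protein at 200 nM in PBS on universal double-stranded arrays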
**A:** -0.278

**Q:** # value lookup — system SpTbr T-box DNA-binding domain (GST fusion), readout PBM E-score of 8-mer, item CGAGTAGC;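 further: protein at 200 nM in PBS on universal double-stranded arrays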
**A:** 0.0635

**Q:** # value lookup — system SpTbr T-box DNA-binding domain (GST fusion), readout PBM E-score of 8-mer, item ACGCCTCA;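 further: protein at 200 nM in PBS on universal double-stranded arrays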
**A:** 0.331

**Q:** # value lookup — system SpTbr T-box DNA-binding domain (GST fusion), readout PBM E-score of 8-mer, item CGGTGACA;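 further: protein at 200 nM in PBS on universal double-stranded arrays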
**A:** 0.326

**Q:** # value lookup — system SpTbr T-box DNA-binding domain (GST fusion), readout PBM E-score of 8-mer, item GGACCTCC;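 further: protein at 200 nM in PBS on universal double-stranded arrays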
**A:** -0.327

**Q:** # value lookup — system SpTbr T-box DNA-binding domain (GST fusion), readout PBM E-score of 8-mer, item CGCGTCAA;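 further: protein at 200 nM in PBS on universal double-stranded arrays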
**A:** 0.313

**Q:** # value lookup — system SpTbr T-box DNA-binding domain (GST fusion), readout PBM E-score of 8-mer, item GGTGTCAC;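 further: protein at 200 nM in PBS on universal double-stranded arrays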
**A:** 0.475

**Q:** # value lookup — system SpTbr T-box DNA-binding domain (GST fusion), readout PBM E-score of 8-mer, item ACCCGAAC;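 further: protein at 200 nM in PBS on universal double-stranded arrays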
**A:** -0.0199

**Q:** # value lookup — system SpTbr T-box DNA-binding domain (GST fusion), readout PBM E-score of 8-mer, item GTTGTCAA;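 further: protein at 200 nM in PBS on universal double-stranded arrays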
**A:** 0.367
